assay remarks: Evaluation of conversion rate to active form in buffer solution (Experimental Example 1)
Type: physicochemical
condition set: pH6.5, 1 hr
Lab note: cut-off is 30%. Strictly less in Production rate of Alvocidib is Condition met. Exactly 30% or more is Condition not met.

molecule	class label
CN1CC[C@H](c2c(O)cc(O)c3c(=O)cc(-c4ccccc4Cl)oc23)[C@H](OC(=O)[C@@H](N)CO)C1 [Comparative Example 9, reference compound]	Condition not met
CNC(=O)Oc1cc(O)c2c(=O)cc(-c3ccccc3Cl)oc2c1[C@H]1CCN(C)C[C@H]1O [Comparative Example 2, reference compound]	Condition not met
CCNC(=O)O[C@@H]1CN(C)CC[C@@H]1c1c(O)cc(O)c2c(=O)cc(-c3ccccc3Cl)oc12 [Comparative Example 4, reference compound]	Condition met
CC(C)[C@H](N)C(=O)O[C@@H]1CN(C)CC[C@@H]1c1c(O)cc(O)c2c(=O)cc(-c3ccccc3Cl)oc12 [Comparative Example 10, reference compound]	Condition met
C[C@H](N)C(=O)O[C@@H]1CN(C)CC[C@@H]1c1c(O)cc(O)c2c(=O)cc(-c3ccccc3Cl)oc12 [Comparative Example 7, reference compound]	Condition not met
CNC(=O)O[C@@H]1CN(C)CC[C@@H]1c1c(O)cc(O)c2c(=O)cc(-c3ccccc3Cl)oc12 [Comparative Example 5, reference compound]	Condition met
CN1CC[C@H](c2c(O)cc(O)c3c(=O)cc(-c4ccccc4Cl)oc23)[C@H](OC(=O)CN)C1 [Comparative Example 8, reference compound]	Condition not met

* * *

Overview of recorded Residual rate (%) of test compound for various compounds
assay remarks: Evaluation of conversion rate to active form in human plasma (Experimental Example 3)
Assay type: in vitro ADME
condition set: human, 60 min, 0.2 μmol/L

compound	units symbol	Residual rate (%) of test compound
CCC(=O)O[C@@H]1CN(C)CC[C@@H]1c1c(O)cc(O)c2c(=O)cc(-c3ccccc3Cl)oc12	%	89
CN1CC[C@H](c2c(O)cc(O)c3c(=O)cc(-c4ccccc4Cl)oc23)[C@H](OC(=O)CN)C1 [Comparative Example 8, reference compound]	%	87
CCOC(=O)O[C@@H]1CN(C)CC[C@@H]1c1c(O)cc(O)c2c(=O)cc(-c3ccccc3Cl)oc12 [Comparative Example 3, reference compound]	%	78
CC(C)[C@H](N)C(=O)O[C@@H]1CN(C)CC[C@@H]1c1c(O)cc(O)c2c(=O)cc(-c3ccccc3Cl)oc12 [Comparative Example 10, reference compound]	%	104
CN1CC[C@H](c2c(O)cc(O)c3c(=O)cc(-c4ccccc4Cl)oc23)[C@H](OC(=O)[C@@H](N)CO)C1 [Comparative Example 9, reference compound]	%	85
CN1CC[C@H](c2c(O)cc(O)c3c(=O)cc(-c4ccccc4Cl)oc23)[C@H](OC(=O)c2ccccc2F)C1	%	74
C[C@H](N)C(=O)O[C@@H]1CN(C)CC[C@@H]1c1c(O)cc(O)c2c(=O)cc(-c3ccccc3Cl)oc12 [Comparative Example 7, reference compound]	%	77
CCNC(=O)O[C@@H]1CN(C)CC[C@@H]1c1c(O)cc(O)c2c(=O)cc(-c3ccccc3Cl)oc12 [Comparative Example 4, reference compound]	%	101

* * *

assay remarks: Evaluation of conversion rate to active form in buffer solution (Experimental Example 1)
Type: physicochemical
condition set: pH5.5, 0.5 hr, 37° C., 25 umol/L in buffer solution
Structures can show the parent of a compound that is named as a salt.

molecule	units symbol	Residual rate
CCN(CC1CCCCN1)C(=O)Oc1cc(O)c2c(=O)cc(-c3ccccc3Cl)oc2c1[C@H]1CCN(C)C[C@H]1O (some centres unmarked) [Example 7, dihydrochloride]	%	98.8
CCCN(C[C@@H]1CCCCN1)C(=O)Oc1cc(O)c2c(=O)cc(-c3ccccc3Cl)oc2c1[C@H]1CCN(C)C[C@H]1O	%	97.2
CCCN(CC1CCCCN1)C(=O)Oc1cc(O)c2c(=O)cc(-c3ccccc3Cl)oc2c1[C@H]1CCN(C)C[C@H]1O (some centres unmarked)	%	95.2
CN1CC[C@H](c2c(OC(=O)N(C)C[C@H]3CCCCN3)cc(O)c3c(=O)cc(-c4ccccc4Cl)oc23)[C@H](O)C1	%	97.1
CCCN(C[C@H]1CCCCN1)C(=O)Oc1cc(O)c2c(=O)cc(-c3ccccc3Cl)oc2c1[C@H]1CCN(C)C[C@H]1O	%	98.1

* * *

This section presents molecules with their documented Production rate of Alvocidib values.
assay remarks: Evaluation of conversion rate to active form in buffer solution (Experimental Example 1)
Assay type: physicochemical
condition set: pH5.5, 1 hr

molecule	Production rate of Alvocidib / %
CN1CC[C@H](c2c(OC(=O)N(C)CCN)cc(O)c3c(=O)cc(-c4ccccc4Cl)oc23)[C@H](O)C1 [Comparative Example 13, reference compound]	11.9
CN1CC[C@H](c2c(O)cc(O)c3c(=O)cc(-c4ccccc4Cl)oc23)[C@H](OC(=O)[C@@H](N)CO)C1 [Comparative Example 9, reference compound]	11.3
C[C@H](N)C(=O)O[C@@H]1CN(C)CC[C@@H]1c1c(O)cc(O)c2c(=O)cc(-c3ccccc3Cl)oc12 [Comparative Example 7, reference compound]	14.3
CN1CC[C@H](c2c(O)cc(O)c3c(=O)cc(-c4ccccc4Cl)oc23)[C@H](OC(=O)CN)C1 [Comparative Example 8, reference compound]	21.4
CC(C)[C@H](N)C(=O)O[C@@H]1CN(C)CC[C@@H]1c1c(O)cc(O)c2c(=O)cc(-c3ccccc3Cl)oc12 [Comparative Example 10, reference compound]	3.7
CNC(=O)Oc1cc(O)c2c(=O)cc(-c3ccccc3Cl)oc2c1[C@H]1CCN(C)C[C@H]1O [Comparative Example 2, reference compound]	90.8

* * *

// reported Encapsulation efficiency for each item listed
assay remarks: Liposome encapsulation test, remote loading method (Experimental Example 4);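 further: encapsulated compound as percent of compound amount introduced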
Format: physicochemical
condition set: Compound concentration when encapsulated 10 mg/mL
Where a name gives a salt, the structure may show the parent alone.

compound	Encapsulation efficiency
CCCN(CC1CCCCN1)C(=O)Oc1cc(O)c2c(=O)cc(-c3ccccc3Cl)oc2c1[C@H]1CCN(C)C[C@H]1O (stereo partly drawn)	72.1%
CCN(CC1CCCCN1)C(=O)Oc1cc(O)c2c(=O)cc(-c3ccccc3Cl)oc2c1[C@H]1CCN(C)C[C@H]1O (stereo partly drawn) [Example 7, dihydrochloride]	72.8%
CCCN(C[C@H]1CCCCN1)C(=O)Oc1cc(O)c2c(=O)cc(-c3ccccc3Cl)oc2c1[C@H]1CCN(C)C[C@H]1O	65.9%

* * *

assay remarks: Evaluation of conversion rate to active form in buffer solution (Experimental Example 1)
Assay type: physicochemical
condition set: pH6.0, 0.5 hr, 37° C., 25 umol/L in buffer solution
Counter-ions that a name gives are not always drawn.
measured attribute: Residual rate (%)

molecule	measured attribute	units symbol	recorded result
CCN(CC1CCCCN1)C(=O)Oc1cc(O)c2c(=O)cc(-c3ccccc3Cl)oc2c1[C@H]1CCN(C)C[C@H]1O (some centres unmarked) [Example 7, dihydrochloride]	Residual rate	%	96.0
COCCN(CC1CCCCN1)C(=O)Oc1cc(O)c2c(=O)cc(-c3ccccc3Cl)oc2c1[C@H]1CCN(C)C[C@H]1O (some centres unmarked)	Residual rate	%	75.4
CN1CC[C@H](c2c(OC(=O)N(C)CC3CCCCN3)cc(O)c3c(=O)cc(-c4ccccc4Cl)oc23)[C@H](O)C1 (some centres unmarked)	Residual rate	%	92.1
CCN(CCC1CCCCN1)C(=O)Oc1cc(O)c2c(=O)cc(-c3ccccc3Cl)oc2c1[C@H]1CCN(C)C[C@H]1O (some centres unmarked)	Residual rate	%	84.3
CCCN(C[C@@H]1CCCCN1)C(=O)Oc1cc(O)c2c(=O)cc(-c3ccccc3Cl)oc2c1[C@H]1CCN(C)C[C@H]1O	Residual rate	%	95.2
CN1CC[C@H](c2c(OC(=O)N(C)C[C@H]3CCCCN3)cc(O)c3c(=O)cc(-c4ccccc4Cl)oc23)[C@H](O)C1	Residual rate	%	91.9
CCN(C[C@@H]1CCCCN1)C(=O)Oc1cc(O)c2c(=O)cc(-c3ccccc3Cl)oc2c1[C@H]1CCN(C)C[C@H]1O [Example 1, ditrifluoroacetate]	Residual rate	%	95.5
CN1CC[C@H](c2c(OC(=O)N(CCC(F)(F)F)CC3CCCCN3)cc(O)c3c(=O)cc(-c4ccccc4Cl)oc23)[C@H](O)C1 (some centres unmarked)	Residual rate	%	69.8

* * *

assay remarks: Evaluation of conversion rate to active form in buffer solution (Experimental Example 1)
Assay type: physicochemical
condition set: pH5.5, 2 hr, 37° C., 25 umol/L in buffer solution
Protocol: For Examples 1 to 16 and Comparative Examples 1 to 14, the attrition rate of the test compound and the conversion rate of the test compound to Alvocidib in a buffer solution were calculated by the following method. Examples 1 to 16 and Comparative Examples 1 to 14 were each left in buffer solutions adjusted to pH 5.0, 5.5, 6.0, 6.5, 7.0 and 7.4, respectively, at a concentration of 25 umol/L at 37° C. […]
Recorded Production rate of Alvocidib for the following compounds

compound	Production rate of Alvocidib (%)
CN1CC[C@H](c2c(OC(=O)N(CCCC(F)(F)F)CC3CCCCN3)cc(O)c3c(=O)cc(-c4ccccc4Cl)oc23)[C@H](O)C1 (stereo partly shown) [Example 14]	35.4
CCCN(C[C@H]1CCCCN1)C(=O)Oc1cc(O)c2c(=O)cc(-c3ccccc3Cl)oc2c1[C@H]1CCN(C)C[C@H]1O [Example 6]	4.3
CN1CC[C@H](c2c(OC(=O)N(CCC(F)(F)F)CC3CCCCN3)cc(O)c3c(=O)cc(-c4ccccc4Cl)oc23)[C@H](O)C1 (stereo partly shown) [Example 13]	13.9
CN1CC[C@H](c2c(OC(=O)N(Cc3ccccc3)CC3CCCCN3)cc(O)c3c(=O)cc(-c4ccccc4Cl)oc23)[C@H](O)C1 (stereo partly shown) [Example 15]	7.8
